# system.tested: Voltage-gated inwardly rectifying potassium channel KCNH2 (Homo sapiens)
# measurement.description: Human Ether-a-go-go-Related Gene (hERG) channel small molecule antagonists: fluorescence cell-based qHTS assay (AID 1671200);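 note: hERG-expressing U2OS cells given a thallium stimulus after FluxOR II dye loading; nearly all actives have a fitted effect of over 50% in size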
# assay.context: hERG-U2OS cells, FluxOR thallium flux fluorescence; series mostly up to 76.8 µM
# Text: National Center for Advancing Translational Sciences [NCATS] U.S. Environmental Protection Agency [EPA] National Institutes of Environmental Health Sciences [NIEHS] National Toxicology Program [NTP] U.S. Food and Drug Administration [FDA] Mutations in the hERG channel cause Long QT (LQT) syndrome. LQT syndrome is a cardiac disorder which can cause ventricle arrhythmia and sudden death. Additionally, compounds which block the hERG channel can cause acquired LQT syndrome. […]
Inconclusive results are not listed. The source made the active and inactive calls. Calls come from the whole dose curve; as a rule, active = well fitted inhibition curve with a large enough effect in the repeat runs; inconclusive = weak or mixed curves; inactive = flat fitted curve, though single readings scatter.
measurement.kind: outcome

>>> endpoint_result("NCCN")
"inactive"
>>> endpoint_result("CC(C)=CCO")
"inactive"
>>> endpoint_result("CC(=O)Nc1ccc2c(c1)Cc1cc(NC(C)=O)ccc1-2")
"inactive"
>>> endpoint_result("CCCCCC=O")
"inactive"
>>> endpoint_result("CCCN1C=CN(C)C1")
"inactive"
>>> endpoint_result("Cc1ccc(S(=O)(=O)O)cc1C")
"inactive"
>>> endpoint_result("CC1(C)C(C=C(Cl)Cl)C1C(=O)OCc1cccc(Oc2ccccc2)c1 (stereo not given)")
"inactive"
>>> endpoint_result("C=CCNCC=C")
"inactive"
>>> endpoint_result("Cc1ccc(S(=O)(=O)NCl)cc1")
"inactive"
>>> endpoint_result("C=C[Si](OCCOC)(OCCOC)OCCOC")
"inactive"
>>> endpoint_result("COc1ccc(-c2coc3cc(O)cc(O)c3c2=O)cc1")
"inactive"
>>> endpoint_result("CC(C)(Oc1ccc(Cl)cc1)C(=O)O")
"inactive"
>>> endpoint_result("[O-]/[N+](=N\\O)c1ccccc1")
"inactive"
>>> endpoint_result("Cc1ccc2c(c1)C(=O)OC2=O")
"inactive"
>>> endpoint_result("Nc1cc([N+](=O)[O-])ccc1C(=O)O")
"inactive"

###

# measurement.description: qHTS assay to identify small molecule agonists of the hypoxia (HIF-1) signaling pathway - cell viability counter screen (AID 1224844); note: nearly all actives have a fitted effect of over 50% in size
# assay.context: HRE-bla ME-180 viability, CellTiter-Glo luminescence, 17 h; series mostly up to 76.8 µM
Inconclusive results are not listed. Active and inactive are the calls of the source. Calls come from the whole dose curve.
Outcome codes: T = active, F = inactive

>>> class_assignment("CCCCCCCCCCC(CO)CCCCCCCC (stereo not drawn)")
"F"
>>> class_assignment("Cc1cccc(Nc2ccccc2C(=O)O)c1C")
"F"
>>> class_assignment("C=C1C[C@H]2[C@@H]3C=C(C)C4=CC(=O)CC[C@]4(C)[C@H]3CC[C@]2(C)[C@@]1(OC(C)=O)C(C)=O")
"F"
>>> class_assignment("C=C[C@H]1CN2CC[C@H]1C[C@H]2[C@H](O)c1ccnc2ccc(OC)cc12")
"F"
>>> class_assignment("CN1CCOCC1")
"F"
>>> class_assignment("CC(=O)Nc1ccc2c(c1)Cc1cc(NC(C)=O)ccc1-2")
"F"
>>> class_assignment("Cc1ccc(C(C)(C)C)cc1")
"F"
>>> class_assignment("CC(C)[C@@H]1CC[C@@H](C)CC1=O")
"F"
>>> class_assignment("CN(C)CCCN1c2ccccc2Sc2ccc(Cl)cc21")
"T"
>>> class_assignment("C/C=C/C(=O)N(CC)c1ccccc1C")
"F"
>>> class_assignment("COCCOCCOCCO")
"F"
>>> class_assignment("CC(C)=CCO")
"F"
>>> class_assignment("O=C(O)c1cc(=O)[nH]c(=O)[nH]1")
"F"

###

# measurement.description: qHTS assay to test for compound auto fluorescence at 460 nm (blue) in HEK293 cell free culture (AID 720681)
# assay.context: cell-free medium, autofluorescence 405/460 nm (blue); series mostly up to 91.3 µM
Activity calls are given as the source filed them. The call rests on the fitted dose curve; in most records, active means well fitted curve in the direction sought with a large enough effect in the repeat runs; inconclusive means weak or mixed curves; inactive means flat fitted curve, though single readings scatter.
Outcome codes: label 1 = active, label 0 = inactive

>>> class_assignment("CC1(C)NC(=O)N(c2ccc([N+](=O)[O-])c(C(F)(F)F)c2)C1=O")
"label 0"
>>> class_assignment("CN(Cc1cnc2nc(N)nc(N)c2n1)c1ccc(C(=O)N[C@@H](CCC(=O)O)C(=O)O)cc1")
"label 1"
>>> class_assignment("Nc1cc([N+](=O)[O-])ccc1C(=O)O")
"label 0"
>>> class_assignment("Cc1ccc(C(C)(C)C)c(O)c1")
"label 0"
>>> class_assignment("CCCCCCC(C)O (configuration not stated)")
"label 0"
>>> class_assignment("C=C1C[C@H]2[C@@H]3C=C(C)C4=CC(=O)CC[C@]4(C)[C@H]3CC[C@]2(C)[C@@]1(OC(C)=O)C(C)=O")
"label 0"
>>> class_assignment("CC[C@]12CCCN3CCc4c(n(c5ccccc45)[C@@](O)(C(=O)OC)C1)[C@@H]32")
"label 0"
>>> class_assignment("O=S1(=O)CCCO1")
"label 0"
>>> class_assignment("C=C[Si](OCCOC)(OCCOC)OCCOC")
"label 0"
>>> class_assignment("O=C(O)c1ccc(O)cc1")
"label 0"
>>> class_assignment("CCCCCCOCCOCCO")
"label 0"
>>> class_assignment("CN(C)CCCN1c2ccccc2Sc2ccc(Cl)cc21")
"label 0"

###

# measurement.description: A CellTox Green Cytotoxicity Assay to monitor cytotoxicity in HEK293 cells - 8 hour (AID 1224884); note: nearly all actives have a fitted effect of over 35% in size
# assay.context: CellTox Green fluorescence; series mostly up to 76.8 µM
Inconclusive results are not listed. Activity calls are given as the source filed them. The call rests on the fitted dose curve; in most records, active means well fitted activation curve with a large enough effect in the repeat runs; inconclusive means weak or mixed curves; inactive means flat fitted curve, though single readings scatter.
measurement.kind: outcome

>>> endpoint_result("O=Cc1ccccc1C=O")
"inactive"
>>> endpoint_result("CC1(C)O[C@@H]2C[C@H]3[C@@H]4C[C@H](F)C5=CC(=O)C=C[C@]5(C)[C@@]4(F)[C@@H](O)C[C@]3(C)[C@]2(C(=O)CO)O1")
"inactive"
>>> endpoint_result("CC1=CC(C)(C)Nc2ccccc21")
"inactive"
>>> endpoint_result("CC(=O)O[C@]1(C(C)=O)CC[C@H]2[C@@H]3C=C(C)C4=CC(=O)CC[C@]4(C)[C@H]3CC[C@@]21C")
"inactive"
>>> endpoint_result("O=C(CCCN1CCC(O)(c2ccc(Cl)cc2)CC1)c1ccc(F)cc1")
"inactive"

###

# system.tested: Retinoic acid receptor RXR-alpha (Homo sapiens) (UniProt P19793)
# Sequence (P19793 whole entry, looked up): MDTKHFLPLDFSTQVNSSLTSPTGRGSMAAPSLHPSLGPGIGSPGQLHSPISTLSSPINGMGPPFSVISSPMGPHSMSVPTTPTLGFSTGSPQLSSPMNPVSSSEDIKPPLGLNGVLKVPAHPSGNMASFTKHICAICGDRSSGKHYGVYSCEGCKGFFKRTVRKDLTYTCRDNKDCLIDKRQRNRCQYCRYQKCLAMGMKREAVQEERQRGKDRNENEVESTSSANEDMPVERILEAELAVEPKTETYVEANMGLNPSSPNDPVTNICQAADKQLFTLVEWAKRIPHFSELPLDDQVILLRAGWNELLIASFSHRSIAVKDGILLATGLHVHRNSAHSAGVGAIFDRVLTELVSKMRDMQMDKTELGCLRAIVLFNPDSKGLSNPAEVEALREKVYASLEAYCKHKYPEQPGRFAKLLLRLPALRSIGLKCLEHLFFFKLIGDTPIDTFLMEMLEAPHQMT
# measurement.description: qHTS assay to identify small molecule agonists of the RXR signaling pathway (AID 1159527); note: nearly all actives have a fitted effect of over 35% in size
# assay.context: HEK293T RXRa-UAS-bla, beta-lactamase ratio, 16 h; series mostly up to 76.8 µM
Inconclusive results are not listed. The source made the active and inactive calls. Calls come from the whole dose curve.
Outcome codes: active, inactive

>>> class_assignment("C=CCOC(=O)C(=C)C")
"inactive"
>>> class_assignment("C=C[C@H]1CN2CC[C@H]1C[C@H]2[C@H](O)c1ccnc2ccc(OC)cc12")
"inactive"
>>> class_assignment("CCC(Cc1c(I)cc(I)c(N)c1I)C(=O)O (stereo not drawn)")
"inactive"
>>> class_assignment("c1ccc2c(c1)[nH]c1ccccc12")
"inactive"
>>> class_assignment("Cc1ccc2c(c1)C(=O)OC2=O")
"inactive"
>>> class_assignment("CCO[Si](CCCNC(N)=O)(OCC)OCC")
"inactive"
>>> class_assignment("CCCCCC=O")
"inactive"
>>> class_assignment("Cc1ccc([N+](=O)[O-])c(C)c1")
"inactive"
>>> class_assignment("CC(=O)Oc1c(C)c(C)c2c(c1C)CC[C@@](C)(CCC[C@H](C)CCC[C@H](C)CCCC(C)C)O2")
"inactive"
>>> class_assignment("NC[C@H](O)c1ccc(O)c(O)c1")
"inactive"
>>> class_assignment("Nc1ccc2c(O)cc(S(=O)(=O)O)cc2c1")
"inactive"
>>> class_assignment("O=C1OC2(c3ccccc31)c1cc(I)c(O)c(I)c1Oc1c2cc(I)c(O)c1I")
"inactive"
>>> class_assignment("FC(F)(F)C(Cl)Br (stereo not drawn)")
"inactive"
>>> class_assignment("[Na+]")
"inactive"
>>> class_assignment("NCCS(=O)(=O)O")
"inactive"
>>> class_assignment("C=C[C@H]1CN2CC[C@H]1C[C@@H]2[C@@H](O)c1ccnc2ccc(OC)cc12")
"inactive"
>>> class_assignment("OC[C@@H](O)[C@@H](O[C@@H]1O[C@H](CO)[C@H](O)[C@H](O)[C@H]1O)[C@H](O)[C@@H](O)CO")
"inactive"
>>> class_assignment("CCC/C=C/C=O")
"inactive"
>>> class_assignment("Nc1ccc(O)c(N)c1")
"inactive"
>>> class_assignment("C=CN1CCCC1=O")
"inactive"
>>> class_assignment("c1ccc2ncccc2c1")
"inactive"
>>> class_assignment("Nc1cc([N+](=O)[O-])ccc1C(=O)O")
"inactive"
>>> class_assignment("C=C[C@@]1(C)CC(=O)[C@]2(O)[C@@]3(C)[C@@H](O)CCC(C)(C)[C@@H]3[C@H](O)[C@H](OC(C)=O)[C@@]2(C)O1")
"active"
>>> class_assignment("O=C(O)CCCC(=O)O")
"inactive"
>>> class_assignment("c1ccc2c(c1)ccc1cc3c(ccc4ccccc43)cc12")
"inactive"
>>> class_assignment("CC(C)(Oc1ccc(Cl)cc1)C(=O)O")
"inactive"
>>> class_assignment("CC(C)=CCO")
"inactive"
>>> class_assignment("O=C(O)COCCN1CCN(C(c2ccccc2)c2ccc(Cl)cc2)CC1 (stereo not drawn)")
"inactive"
